Target: 5-hydroxytryptamine receptor 2A (Homo sapiens)
Experiment: 5-hydroxytryptamine receptor 2A (HTR2A) small molecule agonists, cell-based qHTS assay (AID 1963587); also: nearly all actives have a fitted effect of over 30% in size
Conditions: HTR2A-CHO cells, calcium flux fluorescence, agonist mode; series mostly up to 76.8 µM
Results filed as inconclusive are left out. Activity calls are given as the source filed them. Calls follow the shape of the full dose curve.
Outcomes: active, inactive

COMPOUND | ASSIGNED_LABEL
C[C@]12CCC(=O)C=C1C=C[C@@H]1[C@@H]2CC[C@@]2(C)[C@H]1CC[C@@]21CCC(=O)O1 | inactive
C[C@@H]1C[C@H]2O[C@@]3(O[C@@H]2C(C)(C)O)[C@H](O)[C@@]2(C)[C@@H]4CC[C@H]5C(C)(C)[C@@H](O[C@@H]6OC[C@@H](O)[C@H](O)[C@H]6O)CC[C@@]56C[C@@]46CC[C@]2(C)[C@@H]13 | inactive
CNC(=S)NN | inactive
Cc1ccc2c(Br)cc(Br)c(O)c2n1 | inactive
O=C1Cc2ccccc2C1 | inactive
OC[C@H]1O[C@@H]2O[C@H]3[C@H](O)[C@@H](O)[C@@H](O[C@H]4[C@H](O)[C@@H](O)[C@@H](O[C@H]5[C@H](O)[C@@H](O)[C@@H](O[C@H]6[C@H](O)[C@@H](O)[C@@H](O[C@H]7[C@H](O)[C@@H](O)[C@@H](O[C@H]8[C@H](O)[C@@H](O)[C@@H](O[C@H]9[C@H](O)[C@@H](O)[C@@H](O[C@H]1[C@H](O)[C@H]2O)O[C@@H]9CO)O[C@@H]8CO)O[C@@H]7CO)O[C@@H]6CO)O[C@@H]5CO)O[C@@H]4CO)O[C@@H]3CO | inactive
C=CCCCCCCC=C | inactive
CC1CC(OC(=O)C(O)c2ccccc2)CC(C)(C)N1C (centres undefined) | inactive
CCCCCCCC#N | inactive
O=C1NC(=O)C2CC=CCC12 (centres undefined) | inactive
Cc1cc(C(=C2C=CC(=Nc3ccc(S(=O)(=O)O)cc3S(=O)(=O)O)C=C2)c2ccc(Nc3ccc(S(=O)(=O)O)cc3)cc2)ccc1N | inactive
Cc1ccccc1OCC(=O)O | inactive
O=C(O)CCCCCCCCCC(=O)O | inactive
CC(C)(C)c1ccc(OCC2CO2)cc1 (centres undefined) | inactive
CCOC(=O)/C=C(C)/C=C/C=C(C)/C=C/c1c(C)cc(OC)c(C)c1C | inactive
CC(C)COC(=O)CCCCC(=O)OCC(C)C | inactive
Cc1oc2c(NC(=O)c3c(Cl)cccc3Cl)cccc2c1C(C)(C)O | inactive
C=C(C)C(=O)OCC(O)COc1ccc(C(C)(C)c2ccc(OCC(O)COC(=O)C(=C)C)cc2)cc1 (centres undefined) | inactive
CC/C=C\C/C=C\C/C=C\CCCCCCCC(=O)OCC | inactive
CC(C)=CC(C)(C)C | inactive
CCCCCOC(=O)c1ccc(O)cc1 | active
CCCCCC/C=C/C=O | inactive
CC(C)NC(=O)NC(C)C | inactive
Cc1cc(Nc2ccc(O)cc2)ccc1N | inactive

* * *

Test: p53 small molecule agonists, cell-based qHTS assay with rat liver microsomes: qHTS cell viability counter screen (AID 1963580); also: nearly all actives have a fitted effect of over 45% in size
Settings: p53RE-bla HCT-116 + rat microsomes, ATP viability, 16 h; series mostly up to 66 µM
Inconclusive results are not listed. Active and inactive are the calls of the source. Calls follow the shape of the full dose curve. Bridge positions count the residues as written; N and C are the ends. Square brackets hold non-standard residues; d marks the D form. Peptide text beside a SMILES is read from it. hArg = N=C(N)NCCCC[C@H](N)C(=O)O; Mpa = O=C(O)CCS
Outcome codes: active, inactive

MOLECULE | ASSIGNED_LABEL
O=C(N/N=C/c1ccccc1O)c1ccncc1 | inactive
CC(C)c1nc(CN(C)C(=O)N[C@H](C(=O)N[C@@H](Cc2ccccc2)C[C@H](O)[C@H](Cc2ccccc2)NC(=O)OCc2cncs2)C(C)C)cs1 | inactive
O=C1CCCC(=O)O1 | inactive
CSc1ccc(/C=C2/C(C)=C(CC(=O)O)c3cc(F)ccc32)cc1 | inactive
Cc1ccc(O)c(C(=O)c2ccccc2)c1 | inactive
CN(C)C(=O)Nc1ccccc1 | inactive
COc1ccnc2c1CCCCC2S(=O)c1nc2ccccc2[nH]1 (stereo unspecified) | inactive
Cc1c(NC(=O)c2cccnc2)c(=O)n(-c2ccccc2)n1C | inactive
COc1ccccc1OCCNCC(O)COc1cccc2[nH]c3ccccc3c12 (stereo unspecified) | inactive
OCCC1CCCCN1 (stereo unspecified) | inactive
O=C(O)Cc1cc(I)c(Oc2cc(I)c(O)c(I)c2)c(I)c1 | inactive
Oc1ccc(-c2ccccc2)c(Cl)c1 | inactive
c1cc(N(CC2CO2)CC2CO2)ccc1OCC1CO1 (stereo unspecified) | inactive
CC(=O)Oc1ccc2c(c1)CC[C@@H]1[C@@H]2CC[C@]2(C)[C@@H](O)CC[C@@H]12 | inactive
C/C=C(\C)C(C)=O | inactive
c1ccc(C[n+]2cccc3ccccc32)cc1 | inactive
NC(=O)[C@@H]1CSSCCC(=O)N[C@@H](CCCCN=C(N)N)C(=O)NCC(=O)N[C@@H](CC(=O)O)C(=O)N[C@@H](Cc2c[nH]c3ccccc23)C(=O)N2CCC[C@H]2C(=O)N1 ([Mpa][hArg]GDWPC-NH2; disulfide 1-7) | inactive
CCCn1cc[n+](C)c1C | inactive
C[C@@H]1C[C@H]2[C@@H]3C[C@H](F)C4=CC(=O)C=C[C@]4(C)[C@@]3(F)[C@@H](O)C[C@]2(C)[C@@]1(O)C(=O)CO | inactive
CCCCC1C(=O)N(c2ccccc2)N(c2ccc(O)cc2)C1=O (stereo unspecified) | inactive
O=C(O)CO | inactive
C[C@@H]1C[C@H]2[C@@H]3C[C@H](F)C4=CC(=O)C(Cl)=C[C@]4(C)[C@@]3(F)[C@@H](O)C[C@]2(C)[C@@]1(O)C(=O)CO | inactive
CC(C)C(C)(C)C(C)(C)C(C)(C)S | inactive
NS(=O)(=O)c1cc2c(cc1Cl)NC(CSCc1ccccc1)=NS2(=O)=O | inactive
Nc1ccc(N=Nc2ccccc2)c(N)c1 | inactive
O=[N+]([O-])c1ccc(NCCO)c(OCCO)c1 | inactive
Oc1c(I)cc(Cl)c2cccnc12 | active
C=C1c2cccc(O)c2C(O)=C2C(=O)[C@]3(O)C(O)=C(C(N)=O)C(=O)[C@@H](N(C)C)[C@@H]3[C@@H](O)[C@H]12 | inactive
Nc1cc(Cl)c([N+](=O)[O-])cc1O | inactive
CC(C)(N)C#N | inactive
CNCCCC1c2ccccc2C=Cc2ccccc21 | inactive
CC(=O)S[C@@H]1CC2=CC(=O)CC[C@]2(C)[C@H]2CC[C@@]3(C)[C@@H](CC[C@@]34CCC(=O)O4)[C@H]12 | inactive
O=Cc1ccc(O)c(O)c1O | inactive
CC1(CO)CN(c2ccccc2)NC1=O (stereo unspecified) | inactive
CC(O)C1CCCCC1 (stereo unspecified) | inactive
CC(=O)OCC(C)OC(C)=O (stereo unspecified) | inactive
O=C1NCCN1 | inactive
O=C1OC(=O)c2cc(Oc3ccc4c(c3)C(=O)OC4=O)ccc21 | inactive
NC1(c2ccc(-c3nc4ccn5c(=O)[nH]nc5c4cc3-c3ccccc3)cc2)CCC1 | inactive
CC(C)C(OC(=O)c1ccccc1)C(C)(C)COC(=O)c1ccccc1 (stereo unspecified) | inactive
CCN(C(=O)N(CC)c1ccccc1)c1ccccc1 | inactive
CCOc1cccc(-n2cc(C(=O)N3CCN(c4cc(C(=O)O)c5ccccc5c4)CC3)nc2-c2ccc(C)cc2)c1 | active
COC(=O)/C=C(\C)CCC=C(C)C | inactive
CC[C@H]1O[C@]2(CC[C@@H]1C)C[C@@H]1C[C@@H](C/C=C(\C)C[C@@H](C)/C=C/C=C3\CO[C@@H]4[C@H](O)C(C)=C[C@@H](C(=O)O1)[C@]34O)O2 | inactive
CC(=O)c1ccc([N+](=O)[O-])cc1 | inactive
Cc1ccc(Cl)cc1N | inactive
